- System: MS2 coat protein
- protocol_details: apparent KD of MS2 coat protein; designed switch direction (-1 OFF switch, 1 ON switch): -1; higher = weaker reporter binding
- experimental_conditions: Eterna round: R95; input ligand: microRNA oligo, concentration not stated
quantity_name: apparent KD of MS2 coat protein

>>> result("CUGUACAUAGGAUAUAGUUGUUUUUACAUGAGGAUCACCCAUGUUACUCCUCUCUCUCUUCUAGAAGGAUGUUUCU [JR_E5_Sub008] (puzzle: Exclusion 5)")
"63.8 nM"
>>> result("CAUCCACAUGAGGAUCACCCAUGUGAGGAUAUGAUACUAUGUACUUCGGUACAUAGUAUCAGAAGGCACAGGUG [Ex1-3: 59] (puzzle: Exclusion 1)")
"111 nM"
>>> result("UCAUGUUUAGAGGAUAUGAUUACUCUAGAGUGAUCAGAAGGCUAGACAUGAGGAUCACCCAUGUCAGAACAUGU [Exclusion 6 - B - 17:a] (puzzle: Exclusion 6)")
"24.5 nM"
>>> result("CCUCUACAUGAGGAUCACCCAUGUGAGGAUAUCUCGGAACAACCACUUAAGGCACUCCAGAGAAGGCACGUGUA [Onsote] (puzzle: Exclusion 1)")
"15.5 nM"
>>> result("GGUACUAACACGAAAGUGUUAGUACUAUAAGCUUGUGUUACAUGAGGAUCACCCAUGUCCUCAUAGGCUCGUCUUGU [JL-sv3-2.17 mat747 mod] (puzzle: Sensor v3, turn-off variant 2)")
"51 nM"

====

- Tested on: MS2 coat protein
- protocol_details: apparent KD of MS2 coat protein; designed switch direction (-1 OFF switch, 1 ON switch): 1; higher = weaker reporter binding
- experimental_conditions: input ligand: FMN 200 uM
quantity_name: apparent KD of MS2 coat protein (µM)

>>> result_number("ACUAGAAGCGGGCAAUAACACAUGAGGAUCACCCAUGUGACACAGGAUAUAACCAGAUCAGAAAGUUAGAAGGGUGAGCCCGCA [Usatbere] (Eterna round: R96, puzzle: Same State NG 3)")
0.0132
>>> result_number("AUCAAAAGAGGAGGAUAUGCAGAGGAUCACCCUGUAGAAGGCCACAGAGGAGGAUAUGCAGAGGAUCACCCUGUAGAAGGCCUC [pwkr ssNG DX.16] (Eterna round: R96, puzzle: Same State NG 1)")
0.0373
>>> result_number("GCCGGACCGGAAGGAUAUGUUCCCGGUGCAGCGGGAGACAUGAGGAUCACCCAUGUACUAUAACGACAGAAGGUCCAACCAGCG [Eternabot solution 21] (Eterna round: R96, puzzle: Same State NG 2)")
0.0187

====

- Tested on: MS2 coat protein
- protocol_details: apparent KD of MS2 coat protein; designed switch direction (-1 OFF switch, 1 ON switch): 1; higher = weaker reporter binding
- experimental_conditions: input ligand: FMN 200 uM
Binary call on apparent KD of MS2 coat protein: Fulfilled from 50 nM upward, Not fulfilled beneath that.

>>> label_value("AGCUAUUAAUCAGGAUAUGGUCACAUGAGGAUCACCCAUGUGUAGAUGAUAAAAUGUGGUCAAGACUAGAAGGGAUUGCUAACA [SameState NG2 #62] (Eterna round: R96, puzzle: Same State NG 2)")
"Fulfilled"
>>> label_value("AAACACAUGAGGAUCACCCAUGUAGCGCCAUUAAAGCGCACAUAGGAUAUCCGGUCCUAAAGACCGGAGAAGGGUGAAAGAAAA [Zara] (Eterna round: R96, puzzle: Same State NG 3)")
"Fulfilled"
>>> label_value("UGAAUGAUGUUAGGAUAUACAUGAGGAAUCCUCGUAGAAGGAACAUGACAUGAGGAUCACCCAUGUAGCGCUCCGUAGAGCGCA [JL SSNG1 1.19] (Eterna round: R96, puzzle: Same State NG 1)")
"Fulfilled"
>>> label_value("CUGAGCGAUCUAGGAUAUCACGUCGAUUAGACGUGAGAAGGAGAUCAUAACAUGAGGAUCACCCAUGUAUUACAUGAAGCUCAG [SSNG1/6-A2] (Eterna round: R96, puzzle: Same State NG 1)")
"Not fulfilled"
>>> label_value("AAACAUGAGCGAGGAUAUACGGAGGAUCACCCUGUAGAAGGCGCAUGUAAAACAACAUGAGGAUCACCCAUGUCAUGUACAUGA (Eterna round: R96, puzzle: Same State NG 1)")
"Not fulfilled"
>>> label_value("GGAGGAUUCGCAGGAUAUUCCUGAACACUGUAGGAAGAAGGGUGACGUAUCAGCACCAAGUGACAUGAGGAUCACCCAUGUUAA [Eternabot solution 24] (Eterna round: R96, puzzle: Same State NG 1)")
"Fulfilled"
>>> label_value("GCUCGAUGAGCGAUUUACAUGAGGAUCACCCAUGUACGUGGGCAGGAUAUUUACGUGCUUUGUGUAGAGAAGGGCCCAUCGAGC [SameState NG3 #72] (Eterna round: R96, puzzle: Same State NG 3)")
"Fulfilled"
>>> label_value("AAACUAGGCGGUCCAACAUGAGGAUCACCCAUGUAAAAUUCAUAGGAUAUGCCUAUAGAAACAAGGCAGAAGGGUGAGACCGCA [Atsoorle] (Eterna round: R96, puzzle: Same State NG 3)")
"Fulfilled"
>>> label_value("GGUAGGUUACUACCAAACAUGAGGAUCACCCAUGUAAGUGGGAAGGAUAUGGUACCUUUUAGGUACCAGAAGGUCCAUAUAGUA [JL Fiskers NG3ss - 2 mod 10] (Eterna round: R96, puzzle: Same State NG 3)")
"Fulfilled"
